The reported numbers originate from paper PMC8518816.

Experimental Target: UniProtKB P18031
Sequence (P18031 1-322 limits assumed): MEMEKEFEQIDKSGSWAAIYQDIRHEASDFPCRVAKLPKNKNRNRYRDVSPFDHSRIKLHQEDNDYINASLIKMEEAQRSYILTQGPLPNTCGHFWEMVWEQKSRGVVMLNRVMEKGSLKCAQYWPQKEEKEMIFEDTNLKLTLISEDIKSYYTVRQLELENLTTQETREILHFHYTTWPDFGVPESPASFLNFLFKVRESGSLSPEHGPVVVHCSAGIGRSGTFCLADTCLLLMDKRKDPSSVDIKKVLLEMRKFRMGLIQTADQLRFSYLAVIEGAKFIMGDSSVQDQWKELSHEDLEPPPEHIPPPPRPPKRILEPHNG
Test Description: PTP1B enzyme inhibition
Type: biochemical
Reported Conditions: IC50±SD, soluble 322 amino acids PTP1B, pNPP substrate
pIC50: −log10 of the molar value.
Each entry gets class 0 if its pIC50 stays under 6, and class 1 if its pIC50 is 6 or above.

>>> df
                                   compound  experimental_target  assigned_label
0  CC1Nc2ccccc2-n2nnnc21 (centres unmarked) [Compound 10]     UniProtKB P18031         class 0
1  Cc1nc2ccccc2n2ccnc12 [Compound 2, 4‐Methylimidazo[1,2‐a]quinoxaline]     UniProtKB P18031         class 1
2  c1ccc2c(c1)ncc1nnnn12 [Compound 9, Tetrazolo[1,5‐a]quinoxaline]     UniProtKB P18031         class 1
